assayed_system: full length MPS1 (Homo sapiens (Human), UniProt P33981)
Sequence (P33981 whole entry): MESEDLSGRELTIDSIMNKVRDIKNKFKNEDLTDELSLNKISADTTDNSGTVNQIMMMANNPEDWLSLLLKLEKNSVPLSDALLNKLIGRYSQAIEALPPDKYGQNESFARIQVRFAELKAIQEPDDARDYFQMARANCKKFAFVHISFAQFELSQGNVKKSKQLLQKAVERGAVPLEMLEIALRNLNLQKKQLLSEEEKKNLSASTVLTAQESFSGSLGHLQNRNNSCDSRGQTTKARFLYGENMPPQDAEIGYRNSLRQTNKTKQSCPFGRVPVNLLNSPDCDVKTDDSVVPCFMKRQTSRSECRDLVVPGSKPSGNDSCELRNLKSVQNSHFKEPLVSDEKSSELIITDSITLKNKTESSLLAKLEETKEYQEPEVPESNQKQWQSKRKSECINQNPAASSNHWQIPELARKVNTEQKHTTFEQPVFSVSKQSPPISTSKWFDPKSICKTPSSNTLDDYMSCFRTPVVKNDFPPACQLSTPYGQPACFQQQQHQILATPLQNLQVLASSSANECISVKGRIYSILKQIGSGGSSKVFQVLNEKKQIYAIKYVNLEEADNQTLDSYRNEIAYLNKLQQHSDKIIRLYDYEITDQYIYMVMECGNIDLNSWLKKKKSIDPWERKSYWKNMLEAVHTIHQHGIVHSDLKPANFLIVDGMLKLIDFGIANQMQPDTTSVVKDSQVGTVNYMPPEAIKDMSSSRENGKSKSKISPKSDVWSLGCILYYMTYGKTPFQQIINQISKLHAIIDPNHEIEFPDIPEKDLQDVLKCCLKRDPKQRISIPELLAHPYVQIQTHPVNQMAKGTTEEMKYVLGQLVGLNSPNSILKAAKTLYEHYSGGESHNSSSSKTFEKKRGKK
assay_remarks: Measurement of inhibition of MPS1 kinase (Caliper EZ reader mobility shift assay)
Type: biochemical
reported_endpoint: IC50 (nM)
Numeric only. Scale: nM

Lookup result for COc1cc(-c2cnc(C)n2C)ccc1Nc1cc2cc(-c3cnn(CC(O)CO)c3)ccc2cn1 (racemic) ; measured IC50: 3

###

# IC50 annotations
assayed_system: full length MPS1 (Homo sapiens (Human))
assay_remarks: Measurement of inhibition of MPS1 kinase (Caliper EZ reader mobility shift assay)
Type: biochemical
protocol_conditions: full length MPS1 12.5 nM or 3 nM, H236 peptide 5 μM, ATP 10 μM, 60 min at room temperature; read-out: MPS1 IC50
Numeric only. Scale: nM

structure_notation: CNC(=O)c1ccc2cnc(Nc3ccc(-c4cnn(C)c4)cc3OC)cc2n1
IC50 (nM): 7

Consider the record given below.
Lookup result for `COCCn1cc(-c2ccc3cnc(Nc4ccc(-c5cnn(C)c5CO)cc4OC)cc3c2)cn1` ; measured IC50: 3
